# Tested on: CNE cell line
# procedureDetails: solid tumor cell growth inhibition, MTT
# Format: cell-based
# cond: Homo sapiens, 16 μg/mL compound, 72 h, read-out: IR (cell proliferation inhibition rate)

compound | inhibition at 16 µg/mL / %
COC(=O)[C@]12CCC(C)(C)CC1C1=CCC3[C@@]4(C)CC(C(=O)NCCCN(C)C)C(=O)C(C)(C)C4CC[C@@]3(C)[C@]1(C)CC2 (some centres unmarked) [BS-OA-042] | 99.5
COC(=O)[C@]12CCC(C)(C)CC1C1=CCC3[C@@]4(C)CC(C(=O)NCCCN5CCOCC5)C(=O)C(C)(C)C4CC[C@@]3(C)[C@]1(C)CC2 (some centres unmarked) [BS-OA-037] | 52.6
CC1(C)CC[C@]2(C(=O)O)CC[C@]3(C)C(=CC[C@@H]4[C@@]5(C)CC(C(=O)NCCN6CCCC6)C(=O)C(C)(C)[C@@H]5CC[C@]43C)[C@@H]2C1 (some centres unmarked) [BS-OA-105] | 54.5
COC(=O)[C@]12CCC(C)(C)CC1C1=CCC3[C@@]4(C)CC(C(=O)NCCCN5CCCC5)C(=O)C(C)(C)C4CC[C@@]3(C)[C@]1(C)CC2 (some centres unmarked) [BS-OA-016] | 99.4
CCOCCNC(=O)C1C[C@@]2(C)C(CC[C@]3(C)C2CC=C2C4CC(C)(C)CC[C@]4(C(=O)OC)CC[C@]23C)C(C)(C)C1=O (some centres unmarked) [BS-OA-053] | 9.9

###

# System: RKO cell line
# procedureDetails: solid tumor cell growth inhibition, MTT
# Assay type: cell-based
# cond: Homo sapiens, 72 h
Here, each record is paired with measured IC50 data.

molecule | studyTarget | IC50
CN1CCN(CCCNC(=O)C2C[C@]3(C)[C@H]4CC=C5[C@@H]6CC(C)(C)CC[C@]6(C(=O)O)CC[C@@]5(C)[C@]4(C)CC[C@H]3C(C)(C)C2=O)CC1 (stereo partly drawn) | RKO cell line | > 16 µg/mL
COC(=O)[C@]12CCC(C)(C)C[C@H]1C1=CC[C@@H]3[C@@]4(C)CC(C(=O)NCC5CC5)C(=O)C(C)(C)[C@@H]4CC[C@@]3(C)[C@]1(C)CC2 (stereo partly drawn) | RKO cell line | > 16 µg/mL
COCCCNC(=O)C1C[C@]2(C)[C@H]3CC=C4[C@@H]5CC(C)(C)CC[C@]5(C(=O)OC)CC[C@@]4(C)[C@]3(C)CC[C@H]2C(C)(C)C1=O (stereo partly drawn) | RKO cell line | > 16 µg/mL

###

Here, each record is paired with measured IC50 data.
# Test system: Jurkat cell line
# procedureDetails: leukemia cell growth inhibition, MTT
# Format: cell-based
# cond: Homo sapiens, 72 h
measuredParameter: IC50

molecule | studyTarget | measuredResult
CCN(CC)CCNC(=O)C1C[C@@]2(C)C(CC[C@]3(C)C2CC=C2C4CC(C)(C)CC[C@]4(C(=O)O)CC[C@]23C)C(C)(C)C1=O (stereo partly drawn) | Jurkat cell line | > 16 µg/mL
COC(=O)[C@]12CCC(C)(C)C[C@H]1C1=CC[C@@H]3[C@@]4(C)CC(C(=O)NCCN5CCOCC5)C(=O)C(C)(C)[C@@H]4CC[C@@]3(C)[C@]1(C)CC2 (stereo partly drawn) | Jurkat cell line | > 16 µg/mL
COCCCNC(=O)C1C[C@]2(C)[C@H]3CC=C4[C@@H]5CC(C)(C)CC[C@]5(C(=O)OC)CC[C@@]4(C)[C@]3(C)CC[C@H]2C(C)(C)C1=O (stereo partly drawn) | Jurkat cell line | > 16 µg/mL
